- assayOverview: STAT1 signaling inhibitors, primary screen, cell-based, HTS, luciferase reporter (AID 920);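 further: 0% = IFN-gamma with DMSO and 100% = IFN-gamma with 300 µM nifuroxazide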
- conditionSummary: NIH 3T3 STAT1-luciferase reporter, IFN-gamma, luminescence; at 5.5 µM
Screen size: about 200,000 compounds; about 700 (0.35%) were called active.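 How the source made its calls: active means inhibition above a set limit, the mean inhibition across all tested compounds plus 3 SD (cut at about 34% in these data); inactive means the rest.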 What follows is part of a selection rich in actives, with near analogues and random picks from the rest.
Outcomes: active, inactive

- compound: "C=CCn1c(CCc2ccc(OC(C)C)cc2)n[nH]c1=S"
  assignedCategory: "inactive"
- compound: "NS(=O)(=O)c1cccc(NC(=O)CSc2nc3ccccc3n2-c2ccccc2)c1"
  assignedCategory: "active"
- compound: "Cc1cccc(-n2c(SCC(=O)Nc3cccc(S(=O)(=O)NC4=NCCCCC4)c3)nc3ccccc3c2=O)c1C"
  assignedCategory: "inactive"
- compound: "CC(=O)c1c(C)[nH]c(C(=O)OCC(=O)Nc2sc3c(c2C#N)CCCC3)c1C"
  assignedCategory: "inactive"
- compound: "O=C(C1=C[C@H](c2coc3ccccc3c2=O)C[C@H](OCc2ccc(CO)cc2)O1)N1CCN(Cc2ccccc2)CC1"
  assignedCategory: "inactive"
- compound: "Cc1ccc(C(C[N+](=O)[O-])c2c(C)cc3ccccn23)cc1 (stereo not given)"
  assignedCategory: "inactive"
- compound: "O=C(c1ccc(S(=O)(=O)c2ccccc2)cc1)N1CCCCCC1"
  assignedCategory: "inactive"
- compound: "NC(N)=NCCCc1cn(CC(=O)N2CCNCC2)nn1"
  assignedCategory: "inactive"
- compound: "CC(=O)c1cc(C#N)c(N2CCCCC2)nc1C"
  assignedCategory: "inactive"
- compound: "COc1ccc(OCc2cccc(C(=O)N3CCCC3)c2)cc1"
  assignedCategory: "inactive"

====

- assayOverview: STAT1 signaling inhibitors, primary screen, cell-based, HTS, luciferase reporter (AID 920);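 further: 0% = IFN-gamma with DMSO and 100% = IFN-gamma with 300 µM nifuroxazide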
- conditionSummary: NIH 3T3 STAT1-luciferase reporter, IFN-gamma, luminescence; at 5.5 µM; active compounds read high
Hit rate of the full screen: of about 200,000 compounds, about 700 (0.35%) were called active. The sample as a whole holds a higher share of actives than the screen did.

- compound: "CCOc1cc(/C=C(/C#N)c2ccc(Cl)cc2)cc(Cl)c1OCC(=O)O"
  inhibition: "47.4% (active)"
- compound: "COc1ccc(C(=O)Nc2ccc3c(c2)OCO3)cc1OC"
  inhibition: "-0.74% (inactive)"
- compound: "Cc1nc(CN2CCN(C(=O)CCc3nnc(Cc4c[nH]c5ccccc45)o3)CC2)cs1"
  inhibition: "0.65% (inactive)"
- compound: "COc1ccc2nc(Nc3nc4cc5c(cc4s3)OCCO5)sc2c1"
  inhibition: "-15.9% (inactive)"
- compound: "COc1ccc(C(=O)Nc2ccccc2C(=O)N/N=C/c2ccc(O)c(OC)c2)cc1"
  inhibition: "99.9% (active)"
- compound: "O=C(CSCc1ccccc1)N1CCc2ccccc21"
  inhibition: "-41.3% (inactive)"
- compound: "O=C(CN1CCN(c2ccccn2)CC1)N1CCc2ccccc21"
  inhibition: "-3.17% (inactive)"
- compound: "CC(C)(C)c1ccc(Oc2ccc(N)cc2)cc1"
  inhibition: "64.1% (active)"
- compound: "CCC1CCCCN1CCCNC(=O)c1cc2c(Cl)nc3ccccc3c2s1 (stereo unspecified)"
  inhibition: "-24.2% (inactive)"
- compound: "CN(c1ccc2nc3ccccc3c(=O)n2n1)C1CCCCC1"
  inhibition: "90.1% (active)"
- compound: "CCCC(=O)Nc1ccccc1N1CCN(C(=O)c2ccccc2)CC1"
  inhibition: "34.8% (active)"
- compound: "Cc1cc([N+](=O)[O-])nn1Cc1ccc(F)cc1"
  inhibition: "6.91% (inactive)"
- compound: "COc1cc(C)c(Cl)cc1S(=O)(=O)n1ccnc1"
  inhibition: "7.39% (inactive)"
- compound: "Cn1c(=O)n(C)c2cc(C(=O)Nc3ccc4c(c3)OCO4)ccc21"
  inhibition: "35.6% (active)"
- compound: "CCOC(=O)C(C)Sc1nc2ccccc2c(=O)n1CC1CCCCC1 (stereo unspecified)"
  inhibition: "2.46% (inactive)"
- compound: "CCNc1ccc(C(=O)OCC(=O)N2c3ccccc3NC(=O)C2(C)C)cc1[N+](=O)[O-]"
  inhibition: "4.43% (inactive)"
- compound: "CCc1cc(CNC(=O)CC2C(=O)NCCN2CC2CCCCC2)on1 (stereo unspecified)"
  inhibition: "6.89% (inactive)"
- compound: "CCNC(=O)COc1cc(C)c(Br)c(C)c1"
  inhibition: "-0.94% (inactive)"
- compound: "Nc1ccc(Oc2ccc(Cl)cc2)cc1"
  inhibition: "-14.9% (inactive)"
- compound: "Cc1cc(C)nc(Nc2ncn[nH]2)n1"
  inhibition: "-2.94% (inactive)"
- compound: "Clc1ccc2nc(CSc3ccccc3)cn2c1"
  inhibition: "35.4% (active)"
- compound: "Cc1ccc(Oc2ccc(N)cc2)cc1"
  inhibition: "-19.6% (inactive)"
- compound: "CC(=O)N1N=C(c2ccccc2)OC1c1cccnc1 (stereo unspecified)"
  inhibition: "-12.4% (inactive)"
- compound: "O=c1cc(CSc2ccc(Cl)cc2)nc(N2CCOCC2)[nH]1"
  inhibition: "2.61% (inactive)"
- compound: "CC[C@H]1CN2CCc3cc(OC)c(OC)cc3[C@@H]2C[C@@H]1C[C@H]1NCCc2cc(OC)c(OC)cc21"
  inhibition: "71.5% (active)"
- compound: "CCOc1cc(C)c(Cl)cc1S(=O)(=O)n1nnc2ccccc21"
  inhibition: "42.2% (active)"
- compound: "Brc1ccc2nc(N3CCCC3)sc2c1"
  inhibition: "-39.3% (inactive)"
- compound: "CSc1ccc(CN(C)CC(=O)NCc2ccc(F)cc2)cc1"
  inhibition: "-7.18% (inactive)"
- compound: "C#CCOCCOCCOCCNc1nc(N2CCN(C(=O)[C@H](C(C)C)n3cc(CCO)nn3)CC2)nc(N2CCN(C(=O)[C@H]([C@@H](C)CC)n3cc(CCCN=C(N)N)nn3)CC2)n1"
  inhibition: "-0.51% (inactive)"
- compound: "O=C(CN1C(=O)c2ccccc2S1(=O)=O)N1CCc2ccccc21"
  inhibition: "61.3% (active)"
- compound: "CCC(C)NC(=O)c1c(N)n(/N=C/c2cccs2)c2nc3ccccc3nc12 (stereo unspecified)"
  inhibition: "39.4% (active)"
- compound: "O=C(NNC(=O)C1CCN(c2ncccn2)CC1)c1ccccc1"
  inhibition: "-0.55% (inactive)"
- compound: "Cc1ccc2[nH]cc(CCNC(=O)c3ccc([N+](=O)[O-])cc3)c2c1"
  inhibition: "-1.14% (inactive)"
- compound: "CCOc1c(Cl)cc(/C=N/O)cc1OC"
  inhibition: "5.54% (inactive)"
- compound: "Cn1c(-c2ccco2)nc2cc3ccccc3cc21"
  inhibition: "36.6% (active)"
- compound: "CCN(CC)S(=O)(=O)c1ccc(C)c(NC(=O)COc2ccc(Br)cc2Cl)c1"
  inhibition: "0.32% (inactive)"
- compound: "CC(=O)c1ccc(-c2nnc(CCC(=O)N(C)Cc3cnc4ccccn34)o2)s1"
  inhibition: "0.17% (inactive)"
- compound: "O=c1c2ccccc2nc2n1C1(CCCCC1)Cc1ccccc1-2"
  inhibition: "-5.21% (inactive)"
- compound: "O=C(COC(=O)c1ccc(F)cc1)Nc1nc2ccc([N+](=O)[O-])cc2s1"
  inhibition: "-0.42% (inactive)"
- compound: "CCNC(=S)NNC(=O)c1ccc2ncccc2c1"
  inhibition: "-9.62% (inactive)"
- compound: "COc1cc(/C=N/NC(=O)c2ccccc2)ccc1OS(=O)(=O)c1ccccc1"
  inhibition: "-17.2% (inactive)"
- compound: "CCOc1ncccc1C(=O)OCc1cn2cc(Cl)ccc2n1"
  inhibition: "-9.01% (inactive)"
- compound: "CCN(CC)S(=O)(=O)c1ccc(NC(=O)c2cccnc2Cl)c(NC(=O)c2cccnc2Cl)c1"
  inhibition: "10.8% (inactive)"
- compound: "COc1ccc(/C=N/NC(=O)c2ccccc2)cc1OS(=O)(=O)c1ccccc1"
  inhibition: "6.31% (inactive)"
- compound: "CCOC(=O)C1(Cc2ccc(Cl)cc2)CCN(C(=O)C2=NNC(=O)CC2)CC1"
  inhibition: "2.27% (inactive)"
- compound: "COc1ccccc1C(=O)NNC(=O)c1ccc(NC(=O)c2ccccc2)cc1"
  inhibition: "3.37% (inactive)"
